Just for reference, patent US10800789B2 is where these values come from.

Tested on: NS5A chimeric genotype 2a JFH-1 replicon with genotype 2b MD2b-1 strain NS5A gene (M31 present)
test details: Replicon assay, genotype 2b NS5A chimera
Type: cell-based, HCV
setup conditions: Hepatitis C virus, read-out: 2b (s) (nM), genotype 2b MD2b-1 NS5A chimeric replicon (M31), stably replicating replicon cells (s)
Procedure: Evaluation of Cell-Based Anti-HCV Activity: Antiviral potency (EC50) was determined using a Renilla luciferase (RLuc)-based HCV replicon reporter assay. […] 72 hours later, cells were lysed and Renilla luciferase activity quantified as recommended by the manufacturer (Promega-Madison, Wis.). […]
Listing: EC50 of selected compounds

{"structure": "CC[C@H]1CC[C@@H](c2ncc(-c3ccc4c(c3)COc3cc5c(ccc6nc([C@@H]7C[C@@H]8CCC[C@@H]8N7C(=O)[C@@H](NC(=O)OC)C7CCOCC7)[nH]c65)cc3-4)[nH]2)N1C(=O)[C@@H](NC(=O)OC)C(C)C", "EC50 [nM]": 0.069}
{"structure": "CC[C@H](C)[C@H](NC(=O)OC)C(=O)N1[C@@H](C)CC[C@H]1c1nc2ccc3cc4c(cc3c2[nH]1)OCc1cc(-c2cnc([C@@H]3CC[C@H](C)N3C(=O)[C@@H](NC(=O)OC)C(C)C)[nH]2)ccc1-4", "EC50 [nM]": 0.658}
{"structure": "COC[C@H](NC(=O)OC)C(=O)N1[C@@H](C)CC[C@H]1c1nc2ccc3cc4c(cc3c2[nH]1)OCc1cc(-c2cnc([C@@H]3CC[C@H](C)N3C(=O)[C@@H](NC(=O)OC)C(C)C)[nH]2)ccc1-4", "EC50 [nM]": 0.463}
{"structure": "COC(=O)N[C@H](C(=O)N1[C@@H](C)CC[C@H]1c1nc2ccc3cc4c(cc3c2[nH]1)OCc1cc(-c2cnc([C@@H]3C[C@@H]5CCC[C@@H]5N3C(=O)[C@@H](NC(=O)OC)C3CCOCC3)[nH]2)ccc1-4)C(C)C", "EC50 [nM]": 0.129}

----------
Test system: NS5A chimeric genotype 1b Con1 replicon with genotype 3a S52 strain NS5A gene
test details: Replicon assay, genotype 3a NS5A chimera
Type: cell-based, HCV
setup conditions: Hepatitis C virus, read-out: 3a (s), (s); activity range
metric name: EC50

{"structure": "COC(=O)N[C@H](C(=O)N1[C@@H](C)CC[C@H]1c1nc2ccc3cc4c(cc3c2[nH]1)OCc1cc(-c2cnc([C@@H]3CC[C@H](C)N3C(=O)[C@@H](NC(=O)OC)[C@@H](C)O)[nH]2)ccc1-4)C(C)C", "metric name": "EC50", "recorded value": "< 0.1 nM"}
{"structure": "CC[C@H]1C[C@@H](c2ncc(-c3ccc4c(c3)COc3cc5c(ccc6nc([C@@H]7CC[C@H](C)N7C(=O)[C@@H](NC(=O)OC)C(C)C)[nH]c65)cc3-4)[nH]2)N(C(=O)[C@@H](NC(=O)OC)C(C)C)C1", "metric name": "EC50", "recorded value": "0.1 to 0.999 nM"}
{"structure": "COC[C@H]1C[C@@H](c2ncc(-c3ccc4c(c3)COc3cc5c(ccc6nc([C@@H]7C[C@H](COC)CN7C(=O)[C@@H](NC(=O)OC)[C@@H](C)OC)[nH]c65)cc3-4)[nH]2)N(C(=O)[C@@H](NC(=O)OC)[C@@H](C)OC)C1", "metric name": "EC50", "recorded value": "1 to 44 nM"}
{"structure": "CC[C@H](C)[C@H](NC(=O)OC)C(=O)N1C[C@@H](COC)C[C@H]1c1nc2ccc3cc4c(cc3c2[nH]1)OCc1cc(-c2cnc([C@@H]3CC[C@H](C)N3C(=O)[C@@H](NC(=O)OC)[C@@H](C)OC)[nH]2)ccc1-4", "metric name": "EC50", "recorded value": "< 0.1 nM"}
{"structure": "CC[C@H]1CC[C@@H](c2nc3ccc4cc5c(cc4c3[nH]2)OCc2cc(-c3cnc([C@@H]4C[C@@H]6CCC[C@@H]6N4C(=O)[C@@H](NC(=O)OC)C(C)C)[nH]3)ccc2-5)N1C(=O)[C@@H](NC(=O)OC)C1CCOCC1", "metric name": "EC50", "recorded value": "< 0.1 nM"}
{"structure": "COC[C@H]1C[C@@H](c2ncc(-c3ccc4c(c3)c(=O)oc3cc5c(ccc6nc([C@@H]7CC[C@H](C)N7C(=O)[C@@H](NC(=O)OC)C(C)C)[nH]c65)cc34)[nH]2)N(C(=O)[C@H](NC(=O)OC)c2ccccc2)C1", "metric name": "EC50", "recorded value": "0.1 to 0.999 nM"}
{"structure": "CC[C@H](C)[C@H](NC(=O)OC)C(=O)N1[C@@H](C)CC[C@H]1c1nc2ccc3cc4c(cc3c2[nH]1)OCc1cc(-c2cnc([C@@H]3CC[C@H](C)N3C(=O)[C@@H](NC(=O)OC)C3CCOCC3)[nH]2)ccc1-4", "metric name": "EC50", "recorded value": "< 0.1 nM"}
{"structure": "CC[C@H]1CC[C@@H](c2nc3ccc4cc5c(cc4c3[nH]2)OCc2cc(-c3cnc([C@@H]4CC[C@H](C)N4C(=O)[C@@H](NC(=O)OC)[C@@H](C)OC)[nH]3)ccc2-5)N1C(=O)[C@@H](NC(=O)OC)[C@@H](C)OC", "metric name": "EC50", "recorded value": "0.1 to 0.999 nM"}
{"structure": "COC(=O)N[C@H](C(=O)N1[C@@H](C)CC[C@H]1c1ncc(-c2ccc3c(c2)COc2cc4c(ccc5nc([C@@H]6CC[C@H](C)N6C(=O)[C@@H](NC(=O)OC)[C@@H](C)OC(C)(C)C)[nH]c54)cc2-3)[nH]1)C(C)C", "metric name": "EC50", "recorded value": "0.1 to 0.999 nM"}
{"structure": "COC(=O)N[C@H](C(=O)N1CCC[C@H]1c1ncc(-c2ccc3c(c2)COc2cc4c(ccc5nc([C@@H]6CCCN6C(=O)[C@@H](NC(=O)OC)[C@@H](C)OC)[nH]c54)cc2-3)[nH]1)[C@@H](C)OC", "metric name": "EC50", "recorded value": "0.1 to 0.999 nM"}
{"structure": "COC(=O)N[C@H](C(=O)N1[C@@H](C)CC[C@H]1c1ncc(-c2ccc3c(c2)COc2cc4c(ccc5nc([C@@H]6CC[C@H](C)N6C(=O)[C@@H](NC(=O)OC)[C@@H](C)OC)[nH]c54)cc2-3)[nH]1)C1CCOCC1", "metric name": "EC50", "recorded value": "< 0.1 nM"}
{"structure": "COC(=O)N[C@H](C(=O)N1[C@H](c2ncc(-c3ccc4c(c3)COc3cc5c(ccc6nc([C@@H]7CC[C@H](C)N7C(=O)[C@@H](NC(=O)OC)C7CCOCC7)[nH]c65)cc3-4)[nH]2)C[C@@H]2CCC[C@@H]21)C(C)C", "metric name": "EC50", "recorded value": "< 0.1 nM"}
{"structure": "CC[C@H](C)[C@H](NC(=O)OC)C(=O)N1[C@@H](C)CC[C@H]1c1ncc(-c2ccc3c(c2)COc2cc4c(ccc5nc([C@@H]6CC[C@H](C)N6C(=O)[C@@H](NC(=O)OC)[C@@H](C)CC)[nH]c54)cc2-3)[nH]1", "metric name": "EC50", "recorded value": "< 0.1 nM"}
{"structure": "CC[C@H]1C[C@@H](c2nc3ccc4cc5c(cc4c3[nH]2)OCc2cc(-c3cnc([C@@H]4CC[C@H](C)N4C(=O)[C@@H](NC(=O)OC)C(C)C)[nH]3)ccc2-5)N(C(=O)[C@@H](NC(=O)OC)C(C)C)C1", "metric name": "EC50", "recorded value": "0.1 to 0.999 nM"}
{"structure": "CC[C@H]1C[C@@H](c2nc3ccc4cc5c(cc4c3[nH]2)OCc2cc(-c3cnc([C@@H]4CC[C@H](C)N4C(=O)[C@@H](NC(=O)OC)C(C)C)[nH]3)ccc2-5)N(C(=O)[C@@H](NC(=O)OC)C2CCOCC2)C1", "metric name": "EC50", "recorded value": "< 0.1 nM"}
{"structure": "COC(=O)N[C@H](C(=O)N1[C@@H](C)CC[C@H]1c1ncc(-c2ccc3c(c2)COc2cc4c(ccc5nc([C@@H]6CC[C@H](C)N6C(=O)[C@@H](NC(=O)OC)C6CC6)[nH]c54)cc2-3)[nH]1)C(C)C", "metric name": "EC50", "recorded value": "0.1 to 0.999 nM"}
{"structure": "COC(=O)N[C@H](C(=O)N1[C@@H](C)CC[C@H]1c1ncc(-c2ccc3c(c2)COc2cc4c(ccc5nc([C@@H]6CC[C@H](C)N6C(=O)[C@@H](NC(=O)OC)[C@H](C)OC)[nH]c54)cc2-3)[nH]1)[C@H](C)OC", "metric name": "EC50", "recorded value": "0.1 to 0.999 nM"}
